System: 299254-011-R-J1-PDC complex spheroid viability
Test Summary: Anticancer human tumor 299254-011-R-J1-PDC patient-derived melanoma cell line growth inhibition [POLQ]
Test Settings: second compound 10 µM; first compound 10 µM; hits give low values
# maps each entry to its viability, T/C

>  <Compound>
COc1cc(C2c3cc4c(cc3C(OC3OC5COC(C)OC5C(O)C3O)C3COC(=O)C23)OCO4)cc(OC)c1O (stereo not drawn) + Nc1ccc(C#CCN(C(=O)Cc2ncc(C(F)(F)F)cc2C(F)(F)F)c2ccc(F)cc2)nn1

>  <Units>
%

>  <viability, T/C>
71.7

$$$$
>  <Compound>
O=C(c1cc(Cc2n[nH]c(=O)c3ccccc23)ccc1F)N1CCN(C(=O)C2CC2)CC1 + Cc1cccc(N(C)C(=O)C2C(O)CCN2c2nc(C)cc(C(F)(F)F)c2C#N)c1

>  <Units>
%

>  <viability, T/C>
69

$$$$
>  <Compound>
CC(C)n1c(=O)n(C)c2cnc3cc(F)c(-c4ccc(OCCCN5CCCCC5)nc4)cc3c21 + Cc1cccc(N(C)C(=O)C2C(O)CCN2c2nc(C)cc(C(F)(F)F)c2C#N)c1

>  <Units>
%

>  <viability, T/C>
71.1

$$$$

----------
System: 299254-011-R-J1-PDC complex spheroid viability
Test Summary: Anticancer human tumor 299254-011-R-J1-PDC cell line growth inhibition [POLQ];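 note: spheroids exposed to drugs for one week before measurement; percent viability relative to DMSO vehicle control taken as 100%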
Test Settings: second compound 0.316 µM; first compound 10 µM; hits give low values
Procedure: Multicellular complex tumor spheroid response to Polymerase (POL) inhibitors (novobiocin, ART-558, RP6685) in combination with a variety of drugs and investigational agents in selected tumor cell lines The POL inhibitors (novobiocin, ART-558, and RP6685) were evaluated both individually and in combination with standard of care and investigational anticancer small molecules within a complex spheroid model of solid tumors. . […]
Under this convention, yes denotes viability, T/C strictly below 50% and no denotes viability, T/C at or above 50%.

>  <Compound>
CC1COCCN1c1cc(C2(O)CC3CCC(C2)O3)c2cnn(-c3ccn[nH]3)c2n1 (stereo unspecified) + Nc1ccc(C#CCN(C(=O)Cc2ncc(C(F)(F)F)cc2C(F)(F)F)c2ccc(F)cc2)nn1

>  <System>
299254-011-R-J1-PDC complex spheroid viability

>  <Group>
yes

$$$$
>  <Compound>
CC(C)n1c(=O)n(C)c2cnc3cc(F)c(-c4ccc(OCCCN5CCCCC5)nc4)cc3c21 + Cc1cccc(N(C)C(=O)C2C(O)CCN2c2nc(C)cc(C(F)(F)F)c2C#N)c1

>  <System>
299254-011-R-J1-PDC complex spheroid viability

>  <Group>
no

$$$$
>  <Compound>
CC1COCCN1c1cc(C2(S(C)(=N)=O)CC2)nc(-c2ccnc3[nH]ccc23)n1 (stereo unspecified) + Cc1cccc(N(C)C(=O)C2C(O)CCN2c2nc(C)cc(C(F)(F)F)c2C#N)c1

>  <System>
299254-011-R-J1-PDC complex spheroid viability

>  <Group>
yes

$$$$
>  <Compound>
CC1COCCN1c1cc(C2(S(C)(=N)=O)CC2)nc(-c2ccnc3[nH]ccc23)n1 (stereo unspecified) + COC1C(OC(N)=O)C(O)C(Oc2ccc3c(O)c(NC(=O)c4ccc(O)c(CC=C(C)C)c4)c(=O)oc3c2C)OC1(C)C

>  <System>
299254-011-R-J1-PDC complex spheroid viability

>  <Group>
yes

$$$$
>  <Compound>
CCCS(=O)(=O)Nc1ccc(F)c(C(=O)c2c[nH]c3ncc(-c4ccc(Cl)cc4)cc23)c1F + Cc1cccc(N(C)C(=O)C2C(O)CCN2c2nc(C)cc(C(F)(F)F)c2C#N)c1

>  <System>
299254-011-R-J1-PDC complex spheroid viability

>  <Group>
yes

$$$$
>  <Compound>
CC1COCCN1c1cc(C2(O)CC3CCC(C2)O3)c2cnn(-c3ccn[nH]3)c2n1 (stereo unspecified) + COC1C(OC(N)=O)C(O)C(Oc2ccc3c(O)c(NC(=O)c4ccc(O)c(CC=C(C)C)c4)c(=O)oc3c2C)OC1(C)C

>  <System>
299254-011-R-J1-PDC complex spheroid viability

>  <Group>
yes

$$$$
>  <Compound>
CCc1cc2c(N3CCc4c(cc(Cn5ccnc5)cc4-c4cn(C)nc4C(F)(F)F)C3=O)cc(C)nc2c(OC)n1 + Nc1ccc(C#CCN(C(=O)Cc2ncc(C(F)(F)F)cc2C(F)(F)F)c2ccc(F)cc2)nn1

>  <System>
299254-011-R-J1-PDC complex spheroid viability

>  <Group>
no

$$$$
>  <Compound>
C=CC(=O)N1CCN(c2nc(=O)n(-c3c(C)ccnc3C(C)C)c3nc(-c4c(O)cccc4F)c(F)cc23)C(C)C1 (stereo unspecified) + COC1C(OC(N)=O)C(O)C(Oc2ccc3c(O)c(NC(=O)c4ccc(O)c(CC=C(C)C)c4)c(=O)oc3c2C)OC1(C)C

>  <System>
299254-011-R-J1-PDC complex spheroid viability

>  <Group>
no

$$$$
>  <Compound>
Nc1ccn(C2OC(CO)C(O)C2(F)F)c(=O)n1 (stereo unspecified) + COC1C(OC(N)=O)C(O)C(Oc2ccc3c(O)c(NC(=O)c4ccc(O)c(CC=C(C)C)c4)c(=O)oc3c2C)OC1(C)C

>  <System>
299254-011-R-J1-PDC complex spheroid viability

>  <Group>
yes

$$$$
>  <Compound>
COc1cc(C2c3cc4c(cc3C(OC3OC5COC(C)OC5C(O)C3O)C3COC(=O)C23)OCO4)cc(OC)c1O (stereo unspecified) + Nc1ccc(C#CCN(C(=O)Cc2ncc(C(F)(F)F)cc2C(F)(F)F)c2ccc(F)cc2)nn1

>  <System>
299254-011-R-J1-PDC complex spheroid viability

>  <Group>
no

$$$$
>  <Compound>
CC1COCCN1c1cc(-c2ccnn2C)c2ccnc(-c3ccn[nH]3)c2n1 (stereo unspecified) + Cc1cccc(N(C)C(=O)C2C(O)CCN2c2nc(C)cc(C(F)(F)F)c2C#N)c1

>  <System>
299254-011-R-J1-PDC complex spheroid viability

>  <Group>
yes

$$$$

----------
# maps each entry to its viability, T/C
System: 299254-011-R-J1-PDC complex spheroid viability
Test Summary: Anticancer human tumor 299254-011-R-J1-PDC cell line growth inhibition [POLQ];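 note: spheroids exposed to drugs for one week before measurement; percent viability relative to DMSO vehicle control taken as 100%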
Test Settings: second compound 3.16 µM; first compound 0.01 µM; hits give low values

>  <Molecule>
C=CCn1c(=O)c2cnc(Nc3ccc(N4CCN(C)CC4)cc3)nc2n1-c1cccc(C(C)(C)O)n1 + Nc1ccc(C#CCN(C(=O)Cc2ncc(C(F)(F)F)cc2C(F)(F)F)c2ccc(F)cc2)nn1

>  <viability, T/C [%]>
95.5

$$$$
>  <Molecule>
CCc1c2c(nc3ccc(O)cc13)-c1cc3c(c(=O)n1C2)COC(=O)[C@]3(O)CC + Cc1cccc(N(C)C(=O)C2C(O)CCN2c2nc(C)cc(C(F)(F)F)c2C#N)c1

>  <viability, T/C [%]>
79

$$$$
>  <Molecule>
CC[C@@]1(O)C(=O)OCc2c1cc1n(c2=O)Cc2cc3c(CN(C)C)c(O)ccc3nc2-1 + Cc1cccc(N(C)C(=O)C2C(O)CCN2c2nc(C)cc(C(F)(F)F)c2C#N)c1

>  <viability, T/C [%]>
106

$$$$
>  <Molecule>
CCc1c2c(nc3ccc(O)cc13)-c1cc3c(c(=O)n1C2)COC(=O)[C@]3(O)CC + COC1C(OC(N)=O)C(O)C(Oc2ccc3c(O)c(NC(=O)c4ccc(O)c(CC=C(C)C)c4)c(=O)oc3c2C)OC1(C)C

>  <viability, T/C [%]>
77.5

$$$$

----------
System: 299254-011-R-J1-PDC complex spheroid viability
Test Summary: Anticancer human tumor 299254-011-R-J1-PDC cell line growth inhibition [POLQ];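 note: spheroids exposed to drugs for one week before measurement; percent viability relative to DMSO vehicle control taken as 100%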
Test Settings: second compound 1 µM; first compound 0.1 µM; hits give low values
# maps each entry to its viability, T/C

>  <Molecule>
CCc1c2c(nc3ccc(O)cc13)-c1cc3c(c(=O)n1C2)COC(=O)[C@]3(O)CC + Cc1cccc(N(C)C(=O)C2C(O)CCN2c2nc(C)cc(C(F)(F)F)c2C#N)c1

>  <Units>
%

>  <viability, T/C>
64.7

$$$$
>  <Molecule>
CCCS(=O)(=O)Nc1ccc(F)c(C(=O)c2c[nH]c3ncc(-c4ccc(Cl)cc4)cc23)c1F + Nc1ccc(C#CCN(C(=O)Cc2ncc(C(F)(F)F)cc2C(F)(F)F)c2ccc(F)cc2)nn1

>  <Units>
%

>  <viability, T/C>
99.2

$$$$
>  <Molecule>
Nc1ccn(C2OC(CO)C(O)C2(F)F)c(=O)n1 (centres undefined) + Cc1cccc(N(C)C(=O)C2C(O)CCN2c2nc(C)cc(C(F)(F)F)c2C#N)c1

>  <Units>
%

>  <viability, T/C>
44.1

$$$$
>  <Molecule>
Nc1ccn(C2OC(CO)C(O)C2(F)F)c(=O)n1 (centres undefined) + COC1C(OC(N)=O)C(O)C(Oc2ccc3c(O)c(NC(=O)c4ccc(O)c(CC=C(C)C)c4)c(=O)oc3c2C)OC1(C)C

>  <Units>
%

>  <viability, T/C>
44.4

$$$$
